Assignment: determine reported melting point for the given compounds.
Residues, ends and D or L forms follow the SMILES beside them.

Ask | So what does the record say about melting point for CSCCC(N)C(=O)NC(CCSC)C(=O)O (stereo not drawn) (H-Met-Met-OH; configuration not given here) ?
Reply | 234 to 236 °C

Ask | Repeat with Cc1ccc(N2CCN(Cc3ccc4c(c3)NCCN4)CC2)cc1Cl
Reply | 151 to 152 °C

Ask | Repeat with N=C(NCc1cnc(Cl)s1)N[N+](=O)[O-]
Reply | 160 to 162 °C

Ask | Repeat with CC(C)(C)C(O)C(Cn1ccnc1)Oc1ccc(Cl)cc1 (stereo not given)
Reply | 163 to 170 °C

Ask | Repeat with Cn1cnc(C(c2ccc(Cl)cc2)c2ccc3c(c2)c(-c2ccccc2)cc(=O)n3C)c1 (stereo not given)
Reply | 150 °C

Ask | Repeat with CCCCCCCNC(=O)N(C)c1cccc(-c2ccc(C=C(OC)C(=O)O)cc2)c1
Reply | 114 °C

Ask | Repeat with COc1cc2c(cc1Cl)CCNCC2c1ccc(Br)cc1 (stereo not given)
Reply | 139 to 140 °C

Ask | Repeat with CCOC(=O)C(Cc1c[nH]c2c(C(=O)c3ccc(Cl)cc3)cccc12)C(=O)OCC
Reply | 197 to 201 °C

Ask | Repeat with NC(=O)N1CCC(=O)C(C(c2ccccc2)c2ccccc2)C1 (stereo not given)
Reply | 88 to 89 °C

Ask | Repeat with Cc1cc(O)ccc1-c1nn(CC(C)C)c2c(F)cccc12
Reply | 126 to 128 °C

----------
measurement-label: melting point (°C)
# number only, unit °C dropped from output

Ask | So what does the record say about melting point for CN1C(=O)CN=C(c2ccccc2F)c2c1ccc(N)c2Cl ?
Reply | 126

Ask | Repeat with Cc1cc(C)c2c(c1)nc(N(CCN1CCOCC1)C1CCNCC1)n2Cc1nc(C)ccc1O
Reply | 226

----------
measurement-label: melting point

Ask | So what does the record say about melting point for CCc1cn(S(C)(=O)=O)c2c1C(=O)CC(c1ccccc1)C2 (stereo not given) ?
Reply | 153 to 154 °C

Ask | Repeat with NC(=O)c1ccc(OCC(O)CCCl)cc1 (stereo not given)
Reply | 150 to 153 °C

Ask | Repeat with FC1CCC2C3Cc4ccccc4C2(CCN3)C1 (stereo not given)
Reply | 93 to 97 °C

Ask | Repeat with CSc1cc(Oc2cccc(C(F)(F)F)c2)nc(C(=O)NN)c1
Reply | 149 to 151 °C

Ask | Repeat with O=C1CC2Cc3cc(N4CCCCC4)ccc3C2=NN1 (stereo not given)
Reply | 252 to 254 °C

Ask | Repeat with COc1ccc2[nH]c3c(c2c1)CCN1CN(C)CCC31 (stereo not given)
Reply | 199 to 200 °C

Ask | Repeat with COCOc1c(Cl)ccc(-c2cc(NC(C)=O)c(Cl)c(C(=O)OC)n2)c1F
Reply | 146 °C

Ask | Repeat with COc1ncnc(-c2ccc(Cl)cc2Cl)c1C#N
Reply | 107 to 109 °C

Ask | Repeat with CC(=O)OC[C@@H](C)[C@H]1CC[C@H]2[C@@H]3C=CC4=CC(=O)C=C[C@]4(C)[C@H]3CC[C@]12C
Reply | 90 to 93 °C

Ask | Repeat with CN1C(=O)[C@H](NC(=O)CCc2ccccc2Cl)N=C(c2ccccc2)c2ccccc21
Reply | 158 to 160 °C

Ask | Repeat with CCC1CCC(c2ccc(-c3cc(F)c(C(F)(F)Oc4cc(F)c(C(F)(F)F)c(F)c4)c(F)c3)c(F)c2)OC1 (stereo not given)
Reply | 90 °C

Ask | Repeat with CCC(O)(c1ccc(OCCCN2CCC(C)CC2)cc1)c1ccccc1OC (stereo not given)
Reply | 82 to 83 °C

Ask | Repeat with COc1ccc2ccnc(Cl)c2c1
Reply | 77 to 78 °C

Ask | Repeat with CC(C)(C)c1cc(CCc2ccccc2NC(=O)NCCc2ccc(Cl)cc2)cc(C(C)(C)C)c1O
Reply | 173 to 174 °C

Ask | Repeat with CC(C)CCCC(C)C1CCC2C3=C(CCC21C)C1(C)CCC(O)CC1CC3=O (stereo not given)
Reply | 115 to 117 °C

Ask | Repeat with CC(=O)c1cc(-c2ccccc2)c(=O)n2c1-c1sccc1CC2
Reply | 149 to 150 °C

Ask | Repeat with CCOC(=O)C1=C(C)Nc2nc(N3CCOCC3)nc(N3CCOCC3)c2C1c1cccnc1Cl (stereo not given)
Reply | 185 °C

Ask | Repeat with NC(Cc1c2ccccc2cc2ccccc12)(C(=O)O)C1CC(C(=O)O)C1 (stereo not given)
Reply | 213 to 216 °C

Ask | Repeat with COC(=O)[C@H](O)[C@@H](NC(=O)OC(C)(C)C)c1ccc(N(C)C)cc1
Reply | 120 °C

Ask | Repeat with Cc1cccc2nc(NC(=N)N)[nH]c12
Reply | > 260 °C

Ask | Repeat with COc1ccc(-c2cc(=O)c3c(O)cc(OCC4=COC(C)(C)O4)cc3o2)cc1OC(=O)C(C)(C)C
Reply | 204 to 205 °C

Ask | Repeat with CC(=O)NC[C@H]1CN(c2ccc(-n3cc(-c4ccc(C)cc4)cn3)c(F)c2)C(=O)O1
Reply | 222 to 223 °C

Ask | Repeat with CCCc1nn(-c2ccc(C(F)(F)F)cn2)cc1CCCCOc1nn(-c2ccccc2)cc1CC(=O)O
Reply | 114 to 115 °C

Ask | Repeat with O=C(c1cccs1)c1cnn2c(-c3cccc(-n4cccc4)c3)ccnc12
Reply | 211 to 213 °C

Ask | Repeat with O=C(O)C(=O)c1csc2ccccc12
Reply | 92 to 93 °C

Ask | Repeat with CC(C)(C)OC(=O)Nc1cc(N2CCOCC2)cc(C(F)(F)F)c1
Reply | 146 to 148 °C

Ask | Repeat with Cc1nn(-c2cc(Oc3ccc(OC(C)C(=O)O)cn3)c(Cl)cc2F)c(=O)n1C(F)F (stereo not given)
Reply | 49 to 51 °C

Ask | Repeat with C[C@H]1CN(c2ccc(C(F)(F)F)c(Cl)n2)CCN1C(=O)OC(C)(C)C
Reply | 86 °C

Ask | Repeat with Cc1ccc(/C=C/c2c(C(C)C)nc(C(C)C)c(CO)c2-c2ccc(F)cc2)cc1
Reply | 131 to 133 °C

Ask | Repeat with COC(=O)C(Cc1ccccc1)C(=O)N1CCC(C(=O)O)CC1 (stereo not given)
Reply | 138 °C

Ask | Repeat with O=c1c2c(cc3n1CCCS3)CCCC2
Reply | 123 to 124 °C

Ask | Repeat with O=C(O)Cc1c(-c2ccccc2)c2cc(Cl)c(Cl)cc2oc1=O
Reply | 222 to 223 °C

Ask | Repeat with OC(c1cc(Cl)cc(Cl)c1)C(F)(F)C(F)(F)F (stereo not given)
Reply | 71 to 73 °C

Ask | Repeat with CCOC(=O)Cn1cnc2c(Cl)nc(NC(=O)c3ccc(C4CCCCC4)cc3)nc21
Reply | 90 to 107 °C

Ask | Repeat with CCCCn1c(=O)n(CCN2CCN(c3ccccc3OC)CC2)c(=O)c2sccc21
Reply | 139 to 140 °C

Ask | Repeat with Cc1cc2c(cc1C)-n1cnnc1C=C(c1ccc(-n3c(C)nc4cnccc43)cc1)N2
Reply | 302 to 304 °C

Ask | Repeat with Cc1c(-c2ccc3c(c2)NC(=O)C(C)O3)nc2ccccn12 (stereo not given)
Reply | 216 to 217 °C

Ask | Repeat with O=C(CC1=CC(O)CC1=O)Oc1ccc2ccccc2c1 (stereo not given)
Reply | 81 °C

Ask | Repeat with O=CN1CCN(c2c(F)c(F)c3c(=O)c(C(=O)O)cn(C4CC4)c3c2F)CC1
Reply | 290 to 297 °C

Ask | Repeat with CS(=O)(=O)c1nccc(-c2ccc(Oc3ccc(F)cc3)cc2)n1
Reply | 146 to 147 °C
